- TEST TARGET: CD3ε homodimer protein (human, UniProt P07766 23-126, limits assumed)
- Sequence (P07766 23-126 limits assumed): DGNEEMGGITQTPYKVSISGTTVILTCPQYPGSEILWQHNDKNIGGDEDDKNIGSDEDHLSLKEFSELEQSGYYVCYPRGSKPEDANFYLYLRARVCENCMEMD
- EXPERIMENTAL PROTOCOL: SPR, immobilized CD3ε homodimer;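 also: biacore T200 surface plasmon resonance at 25 °C, antibody variants flowed as analytes over amine-coupled CD3ε homodimer on a CM4 chip, variant binding amount divided by that of GLS3000 antibody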
REPORTED METRIC: ratio of amounts bound (vs GLS3000)
Lab note: jot down the number only; don't add units.

* GLS3000 S26E (antibody, name in Kabat numbering, V domains shown, one-arm format as m2) VH: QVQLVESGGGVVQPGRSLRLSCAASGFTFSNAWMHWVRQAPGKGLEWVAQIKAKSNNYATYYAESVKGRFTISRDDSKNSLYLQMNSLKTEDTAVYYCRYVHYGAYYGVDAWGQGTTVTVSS VL: DIVMTQSPLSLPVTPGEPASISCRSEQSLVHSNRNTYLHWYQQKPGQAPRLLIYKVSNRFSGVPDRFSGSGSGTDFTLKISRVEAEDVGVYYCGQGTQVPYTFGQGTKLEIK | 0.74
* GLS3000 T92A (antibody, name in Kabat numbering, V domains shown, one-arm format as m2) VH: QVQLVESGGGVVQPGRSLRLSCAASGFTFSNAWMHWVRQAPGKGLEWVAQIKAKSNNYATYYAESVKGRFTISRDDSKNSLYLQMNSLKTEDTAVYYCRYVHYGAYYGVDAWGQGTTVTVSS VL: DIVMTQSPLSLPVTPGEPASISCRSSQSLVHSNRNTYLHWYQQKPGQAPRLLIYKVSNRFSGVPDRFSGSGSGTDFTLKISRVEAEDVGVYYCGQGAQVPYTFGQGTKLEIK | 0.63
* GLS3000 T31N (antibody, name in Kabat numbering, V domains shown, one-arm format as m2) VH: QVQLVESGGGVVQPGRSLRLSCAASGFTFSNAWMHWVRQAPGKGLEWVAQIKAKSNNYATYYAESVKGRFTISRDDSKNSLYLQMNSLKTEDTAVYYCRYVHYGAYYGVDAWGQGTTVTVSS VL: DIVMTQSPLSLPVTPGEPASISCRSSQSLVHSNRNNYLHWYQQKPGQAPRLLIYKVSNRFSGVPDRFSGSGSGTDFTLKISRVEAEDVGVYYCGQGTQVPYTFGQGTKLEIK | 0.32
* GLS3000 H27dK (antibody, name in Kabat numbering, V domains shown, one-arm format as m2) VH: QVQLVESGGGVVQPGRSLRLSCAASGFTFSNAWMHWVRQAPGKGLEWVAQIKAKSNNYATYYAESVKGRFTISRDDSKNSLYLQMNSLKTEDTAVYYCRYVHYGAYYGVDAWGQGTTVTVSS VL: DIVMTQSPLSLPVTPGEPASISCRSSQSLVKSNRNTYLHWYQQKPGQAPRLLIYKVSNRFSGVPDRFSGSGSGTDFTLKISRVEAEDVGVYYCGQGTQVPYTFGQGTKLEIK | 0.29

What does the record list as ratio of amounts bound (vs GLS3000) for GLS3000 V94Y (antibody, name in Kabat numbering, V domains shown, one-arm format as m2) VH: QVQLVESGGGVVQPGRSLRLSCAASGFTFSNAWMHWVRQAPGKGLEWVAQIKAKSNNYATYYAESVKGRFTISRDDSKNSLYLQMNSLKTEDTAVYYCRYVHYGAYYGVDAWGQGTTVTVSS VL: DIVMTQSPLSLPVTPGEPASISCRSSQSLVHSNRNTYLHWYQQKPGQAPRLLIYKVSNRFSGVPDRFSGSGSGTDFTLKISRVEAEDVGVYYCGQGTQYPYTFGQGTKLEIK ?
0.63

Any idea what its ratio of amounts bound (vs GLS3000) is? The binder is GLS3000 N28M (antibody, name in Kabat numbering, V domains shown, one-arm format as m2) VH: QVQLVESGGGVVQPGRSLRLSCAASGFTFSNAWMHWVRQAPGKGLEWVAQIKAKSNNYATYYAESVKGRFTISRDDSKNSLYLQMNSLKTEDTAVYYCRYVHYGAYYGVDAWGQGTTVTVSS VL: DIVMTQSPLSLPVTPGEPASISCRSSQSLVHSMRNTYLHWYQQKPGQAPRLLIYKVSNRFSGVPDRFSGSGSGTDFTLKISRVEAEDVGVYYCGQGTQVPYTFGQGTKLEIK
0.39
